- Test system: SK-OV-3 ovarian
- ASSAY_COMMENT: NCI tumour cell line growth inhibition, 48 h
READOUT_LABEL: TGI

{"MOLECULE": "CCOP(=O)(OCC)c1cc2cc(O)ccc2oc1=O", "EXPERIMENTAL_VALUE": "> 100 µM"}
{"MOLECULE": "COc1ccc(C(=O)OC2C(OC3C(O)COC(O[C@H]4C[C@H]5[C@@H]6CC=C7C[C@@H](O)CC[C@]7(C)[C@H]6CC[C@]5(C)[C@H]4[C@H](C)C(=O)CCC(C)C)C3OC(=O)C(C)C)OCC(O)C2O)cc1 (some centres undefined)", "EXPERIMENTAL_VALUE": "1.52 µM"}
{"MOLECULE": "O=[N+]([O-])c1ccc(CSc2c3ccccc3nc3ccccc23)cc1", "EXPERIMENTAL_VALUE": "41.4 µM"}
{"MOLECULE": "C=CC(C)CCC(C/C=C(\\C)CCCC(C)C)C(=C)CCCC(C)C (centres undefined)", "EXPERIMENTAL_VALUE": "> 100 µM"}

Query for SK-OV-3 ovarian: what TGI does the record show for `Cc1cc(C)nc(NS(=O)(=O)c2ccc(Nc3nc4nc(NCc5ccccc5)nc(-c5ccc(O)cc5)c4c(=O)[nH]3)cc2)n1` ?
> 100 µM

Query for SK-OV-3 ovarian: what TGI does the record show for `Nc1cc(N2CCOCC2)nc(=O)n1-c1ccccc1` ?
> 100 µM

###

- Tested on: SK-MEL-5 melanoma
- ASSAY_COMMENT: NCI tumour cell line growth inhibition, 48 h; in the data active means GI50 below about 0.43 µM; inactive means the rest
Give your call using only these classes: active, inactive

Solved entries:
{"COMPOUND": "CS(=O)(=O)c1nccc(-c2c(-c3cccc(OCc4ccccc4)c3)nc3sccn23)n1", "MEASUREMENT_TARGET": "SK-MEL-5 melanoma", "LABEL": "inactive"}
{"COMPOUND": "COc1ccccc1CN=C1NC(=O)/C(=C/c2ccc3ncccc3c2)S1", "MEASUREMENT_TARGET": "SK-MEL-5 melanoma", "LABEL": "inactive"}
{"COMPOUND": "CCCCCCCC(=O)SCC/C=C/[C@@H]1CC(=O)NCc2cccc(n2)C2=N[C@@](C)(CS2)C(=O)N[C@@H](C(C)C)C(=O)O1", "MEASUREMENT_TARGET": "SK-MEL-5 melanoma", "LABEL": "active"}
{"COMPOUND": "CC/C=C\\C[C@H](O)C/C=C1/C(=O)C=C[C@@H]1C/C=C\\CCCC(=O)OCCS(=O)(=O)c1ccccc1", "MEASUREMENT_TARGET": "SK-MEL-5 melanoma", "LABEL": "inactive"}
{"COMPOUND": "CC[C@]12C=CCN3CC[C@@]4(c5ccc(OC)cc5N(C)[C@H]4[C@@](O)(C(=O)OC)[C@@H]1OC(=O)CCCC[P+](c1ccccc1)(c1ccccc1)c1ccccc1)[C@@H]32", "MEASUREMENT_TARGET": "SK-MEL-5 melanoma", "LABEL": "inactive"}

Please share the test call associated with `C/C(=N\NC(=O)c1cccc(S(=O)(=O)N2CCN(C)CC2)c1)c1cc(Cl)ccc1O` .
inactive

Please share the test call associated with `COc1ccc2c(c1)C(=O)c1c-2n(CCCCl)c(=O)c2cc([N+](=O)[O-])ccc12` .
inactive

Please share the test call associated with Cc1c(C)n(CC(O)CNC2CCCCC2C)c2ccccc12 (stereo not drawn) .
inactive
